biological target: human glucagon receptor (glucagon-R) (human, UniProt P47871); assay: cell-based or functional assay
Starred links: 1 amine or outer side, 2 acyl side, 3 side chain; linkers in the order of their positions; H or OH if unused. Non-standard residues stand in square brackets, D forms with d. Groups on a side chain read outwards from the residue. *: point of attachment. γGlu = O=C(O)[C@H](CCC(=O)[*:2])N[*:1]; Palmitoyl = CCCCCCCCCCCCCCCC(=O)*; 3Pal = N[C@@H](Cc1cccnc1)C(=O)O; Aib = CC(C)(N)C(=O)O
Reported property: EC50 (nM) GluR, cAMP formation

Indicate the recorded EC50 (nM) GluR, cAMP formation value for this binder: H-H[Aib][3Pal]GTFTSDYSKYLDSK([γGlu-Palmitoyl])AAHDFVEWLLSA-NH2 [Compound 24] 1.04 nM

Give the reported EC50 (nM) GluR, cAMP formation for this binder. human GLP-1 (ligand) peptide: RSLQDTEEKSRSFSASQADPLSDPDQMNEDKRHSQGTFTSDYSKYLDSRRAQDFVQWLMNTKRNRNNIAKRHDEFERHAEGTFTSDVSSYLEGQAAKEFIAWLVKGRGRRDFPEEVAIVEELGRRHADGSFSDEMNTILDNLAARDFINWLIQTKITDRK 100000 nM

Give the reported EC50 (nM) GluR, cAMP formation for this binder. H-H[Aib][3‑(1-pyrazolyl)alanyl]GTFTSDYSKYLDSK([γGlu-Palmitoyl])AAHDFVEWLLSA-NH2 [Compound 28] 4.85 nM

Using the record for H-H[Aib][3‑(3-thienyl)alanyl]GTFTSDYSKYLDSK([γGlu-Palmitoyl])AAHDFVEWLLSA-NH2 [Compound 27] , state its measured EC50 (nM) GluR, cAMP formation. 1.58 nM
